- ASSAYED_TARGET: T1, RBFOX1 RRM (Homo sapiens, UniProt Q9NWB1 109-208)
- T1 sequence: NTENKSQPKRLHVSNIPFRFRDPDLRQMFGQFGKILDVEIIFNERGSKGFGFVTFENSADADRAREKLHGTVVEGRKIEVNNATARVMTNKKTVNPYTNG
- ASSAY_EXPLANATION: EMSA; HiTS-Eq, 1 nM pool, 10 min; buffer printed only for the single-RNA assays: 10 mM Tris pH 7.5, 150 mM NaCl, 3.4 mM EDTA, 0.001% NP-40, 30 C
- CONDITION_DETAILS: tags: His6 N-terminal (pET28a); label: 5' 32P
Whole data set: some 16,000 sequences, median “ka relative to ugcaugu” near 0.0091, cut for the highest 2% near 0.032. The entries come from a sample that favours the highest values as a whole.
REPORTED_ENDPOINT: binding signal

# binding signal lookup, item CGGCGCA (DNA:RNA) RNA: GGGAGACCGGAAUUCAGAUUGUCCCGGCGCAUUAAAUCCCGUCGUAGCCACCA DNA 1: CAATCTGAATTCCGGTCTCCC DNA 2: TGGTGGCTACGACGGGATT
0.0121 KA relative to UGCAUGU

Same question, AGAUGGC (DNA:RNA) RNA: GGGAGACCGGAAUUCAGAUUGUCCAGAUGGCUUAAAUCCCGUCGUAGCCACCA DNA 1: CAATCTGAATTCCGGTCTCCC DNA 2: TGGTGGCTACGACGGGATT this time
0.0111 KA relative to UGCAUGU
